- System: NCI-H522 lung
- Assay Remarks: NCI-60 one-dose screen, 48 h (100 = growth as untreated, 0 = no growth, -100 = all killed)
- Test Parameters: 10 µM unless noted
- Protocol: Growth inhibition of the NCI-H522 human Non-Small Cell Lung tumor cell line is measured as a screen for anti-cancer activity. Cells are grown in 96 well plates and exposed to the test compound for 48 hours. Compounds are tested at a single concentration, which is 10^-5 M for most compounds. The reported endpoint is percent growth (GI% or GIPRCNT), where numbers from 0 - 100% represent growth inhibition, and numbers from -100% - 0 represent cell death. […]
About 83,000 compounds went through this panel and 20% of them were active in at least one assay; those are over-represented in the sample as a whole.
Observation Type: growth (%)
Write the answer as a number in %, unit excluded.

[
  {
    "Compound": "CCOC(=O)c1cn2c3c(cc(C)cc3c1=O)C(=O)/C(=C/c1ccccc1)C2",
    "System Name": "NCI-H522 lung",
    "Unit Text": "%",
    "growth": 75.8
  },
  {
    "Compound": "CC(=O)Nc1nc(N)nc(NC(C)=O)c1N=O",
    "System Name": "NCI-H522 lung",
    "Unit Text": "%",
    "growth": 101
  },
  {
    "Compound": "CN(C)CCN1C(=O)c2ccc3c4c(ccc(c24)C1=O)C(=O)N(CCN=C=S)C3=O",
    "System Name": "NCI-H522 lung",
    "Unit Text": "%",
    "growth": -93.8
  },
  {
    "Compound": "COc1cc(NC(N)=NCCC(C)(C)Oc2ccc(C(F)(F)F)cc2)ncc1C#N",
    "System Name": "NCI-H522 lung",
    "Unit Text": "%",
    "growth": -83.7
  },
  {
    "Compound": "COc1ccc2[nH]c(=O)c3c4ccccc4cn3c2c1",
    "System Name": "NCI-H522 lung",
    "Unit Text": "%",
    "growth": 3.62
  },
  {
    "Compound": "Cc1ccc(Nc2nnc(-c3ccc(Cl)cc3)o2)c(C)c1",
    "System Name": "NCI-H522 lung",
    "Unit Text": "%",
    "growth": 41
  },
  {
    "Compound": "O=C1/C(=C/c2ccc(Cl)cc2)CN(C(=O)CCN2CCC(=NO)CC2)C/C1=C\\c1ccc(Cl)cc1",
    "System Name": "NCI-H522 lung",
    "Unit Text": "%",
    "growth": -92.1
  },
  {
    "Compound": "CCO/C=N/C1=C(C#N)C(c2ccc(Cl)cc2)c2c(c3ccc(C)cc3[nH]c2=O)O1 (stereo not drawn)",
    "System Name": "NCI-H522 lung",
    "Unit Text": "%",
    "growth": 74.2
  },
  {
    "Compound": "Cn1c2ccc(Br)cc2c2c3c(c4c5ccccc5[nH]c4c21)C(=O)N(O)C3=O",
    "System Name": "NCI-H522 lung",
    "Unit Text": "%",
    "growth": -67
  },
  {
    "Compound": "CC(O)CN1CCCCC1 (stereo not drawn)",
    "System Name": "NCI-H522 lung",
    "Unit Text": "%",
    "growth": 88.8
  }
]

Query: Fill blank: measured growth of the compound COc1ccc(CCNC2=CC(=O)CCC2)cc1OC is ____.
Result: 102

Query: Fill blank: measured growth of the compound CCOC(=O)NNC(=S)Nc1ccccc1 is ____.
Result: 100

Query: Fill blank: measured growth of the compound COc1ccc(C2NN=C3c4ccccc4CCC32)cc1 (stereo not drawn) is ____.
Result: 47.2
